- Organism: Mus musculus
- ASSAY_NAME: In vitro inhibition of interleukin-2 (IL-2) production induced by stimulating lymphocytes derived from mouse spleens with the […]
- Type: functional
- EXPERIMENTAL_PARAMETERS: Spleen
yes if IC50 is below 0.01 µg/mL. no if not; exact matches included in no.

MOLECULE	CLASS_LABEL
C/C=C/C[C@@H](C)[C@@H](O)[C@H]1C(=O)N[C@@H](CC)C(=O)N(C)CC(=O)N(C)[C@@H](CC(C)C)C(=O)N[C@@H](C(C)C)C(=O)N(C)[C@@H](CC(C)C)C(=O)N[C@@H](C)C(=O)N[C@H](COCCN)C(=O)N(C)[C@@H](CC(C)C)C(=O)N(C)[C@@H](CC(C)C)C(=O)N(C)[C@@H](C(C)C)C(=O)N1C	no
C/C=C/C[C@@H](C)[C@@H](O)[C@H]1C(=O)N[C@@H](CC)C(=O)N(C)CC(=O)N(C)[C@@H](CC(C)C)C(=O)N[C@@H](C(C)C)C(=O)N(C)[C@@H](CC(C)C)C(=O)N[C@@H](C)C(=O)N[C@H](COCCO)C(=O)N(C)[C@@H](CC(C)C)C(=O)N(C)[C@@H](CC(C)C)C(=O)N(C)[C@@H](C(C)C)C(=O)N1C [OXECLOSPORIN]	yes
C/C=C/C[C@@H](C)[C@@H](O)[C@H]1C(=O)N[C@@H](CC)C(=O)N(C)CC(=O)N(C)[C@@H](CC(C)C)C(=O)N[C@@H](C(C)C)C(=O)N(C)[C@@H](CC(C)C)C(=O)N[C@@H](C)C(=O)N[C@H](COC)C(=O)N(C)[C@@H](CC(C)C)C(=O)N(C)[C@@H](CC(C)C)C(=O)N(C)[C@@H](C(C)C)C(=O)N1C	no
C/C=C/C[C@@H](C)[C@@H](O)[C@H]1C(=O)N[C@@H](CC)C(=O)N(C)CC(=O)N(C)[C@@H](CC(C)C)C(=O)N[C@@H](C(C)C)C(=O)N(C)[C@@H](CC(C)C)C(=O)N[C@@H](C)C(=O)N[C@H](COCCNS(=O)(=O)c2cccc3c(N(C)C)cccc23)C(=O)N(C)[C@@H](CC(C)C)C(=O)N(C)[C@@H](CC(C)C)C(=O)N(C)[C@@H](C(C)C)C(=O)N1C	no
C#CCOC[C@H]1NC(=O)[C@H](C)NC(=O)[C@H](CC(C)C)N(C)C(=O)[C@H](C(C)C)NC(=O)[C@H](CC(C)C)N(C)C(=O)CN(C)C(=O)[C@H](CC)NC(=O)[C@H]([C@H](O)[C@H](C)C/C=C/C)N(C)C(=O)[C@H](C(C)C)N(C)C(=O)[C@H](CC(C)C)N(C)C(=O)[C@H](CC(C)C)N(C)C1=O	no

Hello, the source for this data is ChEMBL document CHEMBL1128374, in case you need it.
